# SUBJECT_OF_TEST: ALK (Homo sapiens)
# Sequence (Q9UM73 19-1620): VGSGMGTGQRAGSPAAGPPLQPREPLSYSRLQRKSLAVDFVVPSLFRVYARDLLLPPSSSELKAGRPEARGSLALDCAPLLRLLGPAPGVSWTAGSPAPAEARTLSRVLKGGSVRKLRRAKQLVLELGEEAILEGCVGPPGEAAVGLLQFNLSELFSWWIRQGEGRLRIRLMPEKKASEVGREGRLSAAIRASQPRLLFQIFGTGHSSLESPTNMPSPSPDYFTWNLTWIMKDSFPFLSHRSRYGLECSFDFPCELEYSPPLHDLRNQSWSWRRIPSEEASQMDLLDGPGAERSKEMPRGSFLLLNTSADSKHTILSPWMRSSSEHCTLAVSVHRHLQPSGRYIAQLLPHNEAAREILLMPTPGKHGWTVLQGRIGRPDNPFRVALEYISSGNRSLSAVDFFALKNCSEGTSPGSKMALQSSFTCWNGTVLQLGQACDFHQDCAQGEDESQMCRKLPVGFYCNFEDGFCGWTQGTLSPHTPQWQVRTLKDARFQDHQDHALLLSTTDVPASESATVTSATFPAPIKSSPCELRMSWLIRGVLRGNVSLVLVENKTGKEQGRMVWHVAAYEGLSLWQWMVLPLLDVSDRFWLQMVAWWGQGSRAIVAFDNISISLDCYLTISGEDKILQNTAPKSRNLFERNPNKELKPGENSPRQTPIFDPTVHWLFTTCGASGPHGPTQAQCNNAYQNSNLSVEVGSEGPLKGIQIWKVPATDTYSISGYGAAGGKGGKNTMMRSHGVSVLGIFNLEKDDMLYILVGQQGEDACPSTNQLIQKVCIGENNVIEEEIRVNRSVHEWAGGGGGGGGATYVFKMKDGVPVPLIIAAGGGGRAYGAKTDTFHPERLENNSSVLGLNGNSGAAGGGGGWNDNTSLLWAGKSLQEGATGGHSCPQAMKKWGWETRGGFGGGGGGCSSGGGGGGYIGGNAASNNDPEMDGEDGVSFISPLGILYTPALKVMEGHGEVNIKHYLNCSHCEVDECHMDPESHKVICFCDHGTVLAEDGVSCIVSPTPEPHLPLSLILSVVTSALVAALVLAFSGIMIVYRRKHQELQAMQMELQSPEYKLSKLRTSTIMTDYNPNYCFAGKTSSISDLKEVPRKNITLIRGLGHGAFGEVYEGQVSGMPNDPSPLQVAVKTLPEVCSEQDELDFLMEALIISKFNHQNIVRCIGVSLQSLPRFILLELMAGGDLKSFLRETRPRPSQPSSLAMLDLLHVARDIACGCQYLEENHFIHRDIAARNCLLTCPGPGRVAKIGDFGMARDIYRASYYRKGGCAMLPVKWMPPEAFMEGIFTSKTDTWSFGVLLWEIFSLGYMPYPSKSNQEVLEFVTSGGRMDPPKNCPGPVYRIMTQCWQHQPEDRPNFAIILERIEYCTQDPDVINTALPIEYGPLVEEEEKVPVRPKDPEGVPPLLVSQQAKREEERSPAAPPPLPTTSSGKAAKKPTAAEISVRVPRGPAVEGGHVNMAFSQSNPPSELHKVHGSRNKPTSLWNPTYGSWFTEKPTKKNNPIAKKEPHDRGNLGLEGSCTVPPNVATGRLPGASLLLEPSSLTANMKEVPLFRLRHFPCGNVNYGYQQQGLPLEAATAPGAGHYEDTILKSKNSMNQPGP
MEASURE: IC50

Observed IC50 on ALK (Homo sapiens), entry O=S(=O)(c1ccc(C(O)CO)c(C(F)(F)F)c1)N1CCc2cc(C3CC3NCC3CCNCC3)ccc21 (stereo not shown) , equals > 10 µM

====

# SUBJECT_OF_TEST: CDK7 (Homo sapiens)
# Sequence (P50613 whole entry): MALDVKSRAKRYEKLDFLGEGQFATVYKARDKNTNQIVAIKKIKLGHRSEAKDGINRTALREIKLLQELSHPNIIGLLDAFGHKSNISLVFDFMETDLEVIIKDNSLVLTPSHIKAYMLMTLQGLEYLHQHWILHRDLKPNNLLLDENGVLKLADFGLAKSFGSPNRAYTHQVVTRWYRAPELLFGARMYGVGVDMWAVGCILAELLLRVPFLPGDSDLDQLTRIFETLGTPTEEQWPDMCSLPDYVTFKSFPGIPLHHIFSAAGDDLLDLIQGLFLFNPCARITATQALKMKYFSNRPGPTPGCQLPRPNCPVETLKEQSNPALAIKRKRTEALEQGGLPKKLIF
# Sequence (P51946 whole entry partner): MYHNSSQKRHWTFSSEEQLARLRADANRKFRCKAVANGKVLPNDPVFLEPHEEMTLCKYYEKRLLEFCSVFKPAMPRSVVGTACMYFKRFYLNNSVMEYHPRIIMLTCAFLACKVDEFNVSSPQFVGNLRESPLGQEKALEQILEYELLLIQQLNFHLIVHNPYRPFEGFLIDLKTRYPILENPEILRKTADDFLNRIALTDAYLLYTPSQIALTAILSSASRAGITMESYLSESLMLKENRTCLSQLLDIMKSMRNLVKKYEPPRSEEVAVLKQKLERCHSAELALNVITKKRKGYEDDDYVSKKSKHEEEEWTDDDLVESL
# Sequence (P51948 whole entry partner): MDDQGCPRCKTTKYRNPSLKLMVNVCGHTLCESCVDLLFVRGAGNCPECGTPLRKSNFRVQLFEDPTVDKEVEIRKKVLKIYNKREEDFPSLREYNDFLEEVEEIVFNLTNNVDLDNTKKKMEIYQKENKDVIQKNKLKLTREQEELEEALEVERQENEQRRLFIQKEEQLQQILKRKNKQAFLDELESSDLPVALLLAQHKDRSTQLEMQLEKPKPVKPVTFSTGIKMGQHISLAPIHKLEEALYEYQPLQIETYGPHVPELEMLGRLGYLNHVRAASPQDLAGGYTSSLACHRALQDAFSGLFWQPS
pIC50: −log10 of the molar value.
MEASURE: pIC50

Entry O=S(=O)(c1ccc(C(O)CO)c(C(F)(F)F)c1)N1CCc2cc(C3CC3NCC3CCNCC3)ccc21 (stereo not shown) [LTM-1] ; assay system CDK7 (Homo sapiens); pIC50 recorded at < 5.00
